Give measured solubility for each item. Keep answers brief.
- method_summary: Solubility in 0.01N HCl
- Format: physicochemical

Check out these entries, answers already filled in.
input: # get_value(readout='solubility', item= CC(=O)Nc1nc2c(Oc3cc(N4CCN([C@H](C)c5ccc(F)cc5)CC4)ncn3)cccc2s1 )
output: ≥ 200 µg/mL

input: # get_value(readout='solubility', item= CC(=O)Nc1nc2c(Oc3cc(N4CCN(Cc5ccccc5)CC4)ncn3)cccc2s1 )
output: ≥ 200 µg/mL

input: # get_value(readout='solubility', item= CC(=O)Nc1nc2c(Oc3cc(N4CCN(C(C)c5ccccc5)CC4)ncn3)cccc2s1 (centres undefined) )
output: ≥ 200 µg/mL

input: # get_value(readout='solubility', item= COc1ccc(C(C)N2CCN(c3cc(Oc4cccc5sc(NC(C)=O)nc45)ncn3)CC2)cc1 (centres undefined) )
output: ≥ 200 µg/mL

input: # get_value(readout='solubility', item= CC(=O)Nc1nc2c(Oc3cc(N4CCN(CCc5ccccc5)CC4)ncn3)cccc2s1 )
output: ≥ 200 µg/mL

input: # get_value(readout='solubility', item= CC(=O)Nc1nc2c(Oc3cc(N4CCOCC4)ncn3)cccc2s1 )
output: 32 µg/mL

List solubility for every entry below, keeping the order given.
1. CC(=O)Nc1nc2c(Oc3cc(N4CCN(C(C)c5ccc(C(F)(F)F)cc5)CC4)ncn3)cccc2s1 (centres undefined)
2. CC(=O)Nc1nc2c(Oc3cc(N4CCN(C(c5ccccc5)c5ccccc5)CC4)ncn3)cccc2s1
3. CC(=O)Nc1nc2c(Oc3cc(N4CCN(C(C)(C)c5ccccc5)CC4)ncn3)cccc2s1

output:
≥ 200 µg/mL
46 µg/mL
≥ 200 µg/mL
